Measured Ka by item
Molecular target: T1, recombinant human IL-23R/Fc chimera (R&D Systems) (human, UniProt Q5VWK5 24-355)
T1 construct: Bought; also called rhIL23RFc
T1 sequence (looked up): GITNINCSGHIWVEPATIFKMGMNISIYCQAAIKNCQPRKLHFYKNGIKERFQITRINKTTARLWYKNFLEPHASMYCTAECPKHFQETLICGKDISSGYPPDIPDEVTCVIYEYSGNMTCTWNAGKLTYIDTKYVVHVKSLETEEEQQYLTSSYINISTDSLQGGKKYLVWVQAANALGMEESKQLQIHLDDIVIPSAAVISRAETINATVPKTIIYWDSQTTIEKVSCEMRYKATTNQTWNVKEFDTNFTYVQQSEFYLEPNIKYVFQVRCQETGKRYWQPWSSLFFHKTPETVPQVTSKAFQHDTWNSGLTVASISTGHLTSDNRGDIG
Assay: SPR
Please state the figure in M⁻¹; there is no need to write the unit.

Consider the following illustrative entries.
binder	Ka (M⁻¹)
105-08-1A8 ATRIMER complex (designed binder) EPPTQKPKKIVNAKKDVVNTKMFEELKSRLDTLAQEVALLKEQQALQTVCLKGTKVHMKCFLAFTQTKTFHEASEDCISRGGTLSTPQTGSENDALYEYLRQSVGNEAEIWLGLNGSPRTNTWVDMTGARIAYKNWETEITAQPDGGFGVFGENCAVLSGAANGKWFDKRCRDQLPYICQFGIV	2.14e+09
101-54-4B10 ATRIMER complex (designed binder) EPPTQKPKKIVNAKKDVVNTKMFEELKSRLDTLAQEVALLKEQQALQTVCLKGTKVHMKCFLAFTQTKTFHEASEDCISRGGTLSTPQTGSENDALYEYLRQSVGNEAEIWLGLNGSALTNTWVDMTGARIAYKNWERPPLYQPGGGFGYFGENCAVLSGAANGKWFDKRCRDQLPYICQFGIV	1.11e+09
105-08-1A3 ATRIMER complex (designed binder, Homotrimer of three identical chains (ATRIMER complex); one chain is given., not shown: C-terminal tag: His/Myc (pANA4) or HA-StrepII (pANA10)) EPPTQKPKKIVNAKKDVVNTKMFEELKSRLDTLAQEVALLKEQQALQTVCLKGTKVHMKCFLAFTQTKTFHEASEDCISRGGTLSTPQTGSENDALYEYLRQSVGNEAEIWLGLNGSPRTDTWVDMTGARIAYKNWETEITAQPDGGWGVFGENCAVLSGAANGKWFDKRCRDQLPYICQFGIV	2.11e+09
101-54-4A12 ATRIMER complex (designed binder, also called 101-54-4Al2) EPPTQKPKKIVNAKKDVVNTKMFEELKSRLDTLAQEVALLKEQQALQTVCLKGTKVHMKCFLAFTQTKTFHEASEDCISRGGTLSTPQTGSENDALYEYLRQSVGNEAEIWLGLNGSRRSGVWVDMTGARIAYKNWEPPGPAHPQGGFGVFGENCAVLSGAANGKWFDKRCRDQLPYICQFGIV	2.16e+09
001-69.4E5 monomeric CTLD (designed binder, C-terminal tag not specified; not shown: Also the vector's N-terminal AGGGS after the pelB signal) ALQTVCLKGTKVHMKCFLAFTQTKTFHEASEDCISRGGTLSTPQTGSENDALYEYLRQSVGNEAEIWLGLNGNPSGSVWVDMTGARIAYKNWETEITAQPDGGYGVWGENCAVLSGAANGKWFDKRCRDQLPYICQFGIV	2.82e+06

Next up:
Value lookup for Ka; key = 056-41.B12F ATRIMER complex (designed binder, Homotrimer of this chain (ATRIMER complex)., not shown: A possible extra N-terminal Ser from the ompA junction is left out) EPPTQKPKKIVNAKKDVVNTKMFEELKSRLDTLAQEVALLKEQQALQTVCLKGTKVHMKCFLAFTQTKTFHEASEDCISRGGTLSTPQTGSENDALYEYLRQSVGNEAEIWLGLNGSVRSATWVDMTGARIAYKNWETEITAQPDGGYGVFGENCAVLSGAANGKWFDKRCRDQLPYICQFGIV
4.47e+08
